# Test system: SW-620 colon
# assay-explanation: NCI tumour cell line growth inhibition, 48 h
Where a SMILES comes first, the peptide text is derived from it. The star is where a group is joined. Cbz = O=C(OCc1ccccc1)*; OBn = c1ccc(CO*)cc1
Exercise: state measured TGI for each of the compounds provided.

Known results for compounds:
Please supply the value of reported TGI for the item CO[C@@H]1/C=C(C)/C=C/[C@@H](C)/C=C(\C)C(=O)OC(/C(C)=C/C=C(\C)CNC(=O)[C@H](CO)NC=O)[C@@H](C)/C=C/C=C/[C@H](OC)CC/C=C(C)/C=C/C1 (some centres not stated) 13.6 µM

Please supply the value of reported TGI for the item O=C1c2c(nc3ccccc3c2-c2ccccc2)CN1Nc1ccccn1 > 100 µM

Please supply the value of reported TGI for the item Cc1sc(/N=C/c2c[nH]c3ccccc23)c(C#N)c1C > 100 µM

Please supply the value of reported TGI for the item O=C1/C(=C/c2ccccc2[N+](=O)[O-])N=C(c2ccccc2)N1C1Nc2cc3c(cc2S1)NC(N1C(=O)/C(=C/c2ccccc2[N+](=O)[O-])N=C1c1ccccc1)S3 (configuration not stated) > 100 µM

Please supply the value of reported TGI for the item O=C(O)c1ccc(N/C=C2\C(=O)c3ccccc3OC2O)cc1O (configuration not stated) 48.3 µg/mL

Please supply the value of reported TGI for the item CCOC(=O)C1SC(=Nc2ccc(Cl)c(Cl)c2)N=C1C (configuration not stated) > 100 µM

Give me TGI for each of these compounds, listed below.
1. CCN(c1ccc(Br)cc1)c1c(Br)c(=O)nc2ccccn12
2. COc1cccc(Cc2c3cc(OC)ccc3cc[n+]2C)c1
3. COC(=O)C(Cc1ccc(O)cc1)NC(=O)C(CC(=O)OCc1ccccc1)NC(=O)OCc1ccccc1 (configuration not stated) (Cbz-Asp(OBn)-Tyr-OMe; configuration not given here)
4. Cc1[nH]c2ccccc2c1C=Nc1ccc(N=Cc2c(C)[nH]c3ccccc23)cc1
5. Cc1nc2ccc(S(=O)(=O)O)cc2c(=O)n1-c1ccc(C(=O)NN2C(=O)C(Cl)C2c2ccccc2O)cc1 (configuration not stated)
6. O=[Se](=O)c1ccccc1.O=[Se](=O)c1ccccc1.[Cu]

1: > 100 µM; 2: > 100 µM; 3: 44.8 µM; 4: 70.2 µM; 5: > 100 µM; 6: 33.8 µM

* * *

# Tested on: SNB-75 CNS
# assay-explanation: NCI tumour cell line growth inhibition, 48 h
quantity: GI50

Known results for compounds:
Please supply the value of reported GI50 for the item C#Cc1c(C(N)=O)ncn1C1OC(COP(=O)(OCc2ccc([N+](=O)[O-])o2)N(C)CCCCCl)C(O)C1O (stereo not given) 28.1 µM

Please supply the value of reported GI50 for the item COc1ccc2c(c1)C(=O)/C(=C/c1ncc([N+](=O)[O-])n1C)O2 1.12 µM

Please supply the value of reported GI50 for the item COc1cc(/C=C2\CN(C)C/C(=C\c3cc(CN4CCCCC4)c(O)c(OC)c3)C2=O)cc(CN2CCCCC2)c1O 1.99 µM

Please supply the value of reported GI50 for the item O=C(O)c1ccc(N/C=C2\C(=O)c3ccccc3OC2O)cc1O (stereo not given) 17.7 µg/mL

Now look at this one.
Please supply the value of reported GI50 for the item CCN(CCCl)CCCNc1c2ccccc2nc2ccc(OC)cc12 532 µM
